- Test System: WEE2 (human)
- Protocol Details: KINOMEscan competition binding
- Conditions: compound 10.0 µM
Property: kinase still bound, per cent of control; scope: individual compounds
The reply should be a number in %, with the unit left off.

* COc1ccc(N(C(=O)Oc2c(C)cccc2C)c2ccnc(Nc3ccc(N4CCN(C)CC4)cc3)n2)c(OC)c1 | 100
* COc1cc2ncn(-c3cc(OCc4ccccc4C(F)(F)F)c(C(N)=O)s3)c2cc1OC | 100
* O=C1NC(=O)/C(=C/c2ccc3nccc(-c4ccncc4)c3c2)S1 | 95
* C=CC(=O)Nc1cc(-n2c(=O)ccc3cnc4ccc(-c5cn[nH]c5)cc4c32)ccc1C | 95
* COc1cc(C(=O)N2CCC(N3CCN(C)CC3)CC2)ccc1Nc1ncc2c(n1)N(C)c1ccccc1C(=O)N2C | 100
* CN(C)C/C=C/C(=O)Nc1ccc(C(=O)Nc2cccc(Nc3nccc(-c4cccnc4)n3)c2)cc1 | 100

# input Read off the recorded kinase still bound, per cent of control for O=c1cc(N2CCOCC2)oc2c(-c3cccc4c3sc3ccccc34)cccc12
# output 100

# input Read off the recorded kinase still bound, per cent of control for Cc1n[nH]c2ccc(-c3cncc(OC[C@@H](N)Cc4c[nH]c5ccccc45)c3)cc12
# output 100

# input Read off the recorded kinase still bound, per cent of control for N#CCNC(=O)c1ccc(-c2ccnc(Nc3ccc(N4CCOCC4)cc3)n2)cc1
# output 100
